- experimental target: UniProt:Q9Y5N1
- Sequence (Q9Y5N1 whole entry): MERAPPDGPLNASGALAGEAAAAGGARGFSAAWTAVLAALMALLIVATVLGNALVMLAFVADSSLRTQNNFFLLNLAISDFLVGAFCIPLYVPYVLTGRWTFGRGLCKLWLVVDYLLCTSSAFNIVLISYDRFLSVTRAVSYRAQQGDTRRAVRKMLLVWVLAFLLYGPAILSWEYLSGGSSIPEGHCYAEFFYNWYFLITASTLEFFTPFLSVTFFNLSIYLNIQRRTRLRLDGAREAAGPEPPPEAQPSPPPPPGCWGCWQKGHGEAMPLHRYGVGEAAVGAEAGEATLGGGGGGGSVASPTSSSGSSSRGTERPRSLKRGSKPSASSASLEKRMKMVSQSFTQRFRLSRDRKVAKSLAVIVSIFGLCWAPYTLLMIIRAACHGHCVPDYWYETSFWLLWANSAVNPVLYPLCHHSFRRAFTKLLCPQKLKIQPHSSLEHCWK
- procedure summary: H3 affinity, radioligand binding assay employing [3H](R)-α-methylhistamine
- reported conditions: 5-point concentration response curves; read-out: H3 Ki
observed property: log10 of Ki (log10 of the value in nM)
The common logarithm of Ki in nM is what is listed.

Consider the worked cases shown below.
INSERT INTO measurements (structure_notation, reported_measurement) VALUES
  ('CN(C)CCOc1ccc(CCNC(=O)c2cc(Br)c[nH]2)cc1Br', 3.20),
  ('C[C@@H]1CCCN1CCOc1ccc(CCNC(=O)c2cc(Br)cs2)cc1Br', 2.49),
  ('CN(C)CCCOc1ccc(CCNC(=O)c2ccc[nH]2)cc1Br', 3.11),
  ('O=C(NCCc1ccc(OCCN2CCCC2)c(Br)c1)c1nccs1', 2.06),
  ('O=C(NCCc1ccc(OCCN2CCCC2)c(Br)c1)c1ccc[nH]1', 2.18);

Turning now to a further record.
Task: Respond only with log10 of Ki recorded for O=C(NCCc1ccc(OCCN2CCCC2)c(Br)c1)c1cccc(Cl)c1
Result: 2.40
